- Test system: rat soleus muscles
- Measurement description: Recovery of nerve-stimulated force in isolated rat soleus muscles exposed to sub-maximal tubocurarine (Table 1)
- Study conditions: 500 μM compound; % change in AUC compared to AUC before addition, after 40 min in tubocurarine
Property label: 500 μM % change after addition (AUC force) (%)
I only need the number, in %, no unit after it.

INSERT INTO results (compound, value) VALUES
  ('CCC(Oc1ccc(Cl)cc1)C(=O)O (centres unmarked)', 40),
  ('C[C@H](OCc1ccccc1)C(=O)O', 42),
  ('COCC(C)C(Oc1ccc(Br)cc1)C(=O)O (centres unmarked)', 36);

Q: May I ask what 500 μM % change after addition (AUC force) has been recorded for CC(C(=O)O)S(=O)(=O)c1ccc(F)cc1 (centres unmarked) ?
Result: 9

Q: Cl.NCC(Oc1ccc(F)cc1)C(=O)O (centres unmarked) ?
Result: 5

----------
- System under test: human CIC-1 channels (Homo sapiens)
- Construct: host or cells: CHO (Chinese hamster ovary) cells constitutively expressing human ClC-1
- Sequence (P35523 whole entry): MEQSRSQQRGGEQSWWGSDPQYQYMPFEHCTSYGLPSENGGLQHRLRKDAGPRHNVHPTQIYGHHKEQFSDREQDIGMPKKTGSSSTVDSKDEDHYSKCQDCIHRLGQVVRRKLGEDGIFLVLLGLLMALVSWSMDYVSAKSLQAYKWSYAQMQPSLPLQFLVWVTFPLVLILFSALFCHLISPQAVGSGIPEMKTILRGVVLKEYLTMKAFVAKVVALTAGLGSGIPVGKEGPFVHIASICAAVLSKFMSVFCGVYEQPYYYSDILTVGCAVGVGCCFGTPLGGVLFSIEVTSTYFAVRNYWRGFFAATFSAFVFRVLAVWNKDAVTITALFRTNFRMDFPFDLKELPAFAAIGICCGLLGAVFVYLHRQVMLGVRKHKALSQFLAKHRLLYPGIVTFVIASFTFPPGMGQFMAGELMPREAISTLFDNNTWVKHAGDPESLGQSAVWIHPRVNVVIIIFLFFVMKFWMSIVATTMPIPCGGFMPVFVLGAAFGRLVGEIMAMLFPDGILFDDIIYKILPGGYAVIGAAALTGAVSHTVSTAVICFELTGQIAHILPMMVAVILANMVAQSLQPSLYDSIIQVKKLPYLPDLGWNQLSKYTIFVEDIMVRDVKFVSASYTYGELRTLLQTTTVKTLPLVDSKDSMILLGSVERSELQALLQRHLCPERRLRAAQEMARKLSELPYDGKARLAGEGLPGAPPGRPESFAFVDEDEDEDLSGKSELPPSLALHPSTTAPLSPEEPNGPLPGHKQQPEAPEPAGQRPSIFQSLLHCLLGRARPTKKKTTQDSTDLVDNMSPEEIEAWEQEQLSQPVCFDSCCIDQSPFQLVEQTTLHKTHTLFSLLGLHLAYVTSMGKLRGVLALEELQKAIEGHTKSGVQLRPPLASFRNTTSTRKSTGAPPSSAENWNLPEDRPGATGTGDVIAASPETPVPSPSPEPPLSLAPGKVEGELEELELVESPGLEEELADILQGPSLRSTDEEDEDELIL
- Measurement description: Automated patch-clamp on human CIC-1 expressed in CHO cells: shift of half activation voltage ΔV1/2
- Assay type: cell-based
- Study conditions: compound in intracellular solution vs control cell patches; CHO cells expressing human CIC-1
Property label: Δ1/2 (mV)
Report the figure in mV without appending any unit label.

Please review the following examples before continuing.
INSERT INTO results (compound, value) VALUES
  ('O=C(O)[C@H](CC1CC1)Oc1ccc(Br)cc1-c1ccon1 [Compound A-33]', 15.1),
  ('O=C(O)[C@H](CF)Oc1ccc(Br)cc1-c1ccon1 [Compound A-31]', 13.8),
  ('C[C@H](Oc1ccc(Br)cc1-c1cocn1)C(=O)O [Compound A-42]', 6.8),
  ('O=C(O)COc1ccc(Br)cc1-c1ccon1 [Compound A-64]', 11.3),
  ('CC[C@H](Oc1ccc(Br)cc1-c1ccon1)C(=O)O [Compound A-2]', 7.2),
  ('C[C@H](Oc1cc(F)c(Br)cc1-c1ccon1)C(=O)O [Compound A-44]', 17.7),
  ('C[C@H](Oc1ccc(Br)cc1-c1nncs1)C(=O)O [Compound A-65]', 12.8),
  ('C[C@H](Oc1ccc(Cl)cc1-c1ccno1)C(=O)O [Compound A-26]', 21);

Below: the item to evaluate.
Q: Report Δ1/2 (mV) for C[C@H](Oc1ccc(Br)cc1-c1csnn1)C(=O)O [Compound A-59] tested on human CIC-1 channels (Homo sapiens).
Result: 7.9

----------
- System under test: CIC-1 channels (Rattus norvegicus, UniProt P35524)
- Sequence (P35524 whole entry): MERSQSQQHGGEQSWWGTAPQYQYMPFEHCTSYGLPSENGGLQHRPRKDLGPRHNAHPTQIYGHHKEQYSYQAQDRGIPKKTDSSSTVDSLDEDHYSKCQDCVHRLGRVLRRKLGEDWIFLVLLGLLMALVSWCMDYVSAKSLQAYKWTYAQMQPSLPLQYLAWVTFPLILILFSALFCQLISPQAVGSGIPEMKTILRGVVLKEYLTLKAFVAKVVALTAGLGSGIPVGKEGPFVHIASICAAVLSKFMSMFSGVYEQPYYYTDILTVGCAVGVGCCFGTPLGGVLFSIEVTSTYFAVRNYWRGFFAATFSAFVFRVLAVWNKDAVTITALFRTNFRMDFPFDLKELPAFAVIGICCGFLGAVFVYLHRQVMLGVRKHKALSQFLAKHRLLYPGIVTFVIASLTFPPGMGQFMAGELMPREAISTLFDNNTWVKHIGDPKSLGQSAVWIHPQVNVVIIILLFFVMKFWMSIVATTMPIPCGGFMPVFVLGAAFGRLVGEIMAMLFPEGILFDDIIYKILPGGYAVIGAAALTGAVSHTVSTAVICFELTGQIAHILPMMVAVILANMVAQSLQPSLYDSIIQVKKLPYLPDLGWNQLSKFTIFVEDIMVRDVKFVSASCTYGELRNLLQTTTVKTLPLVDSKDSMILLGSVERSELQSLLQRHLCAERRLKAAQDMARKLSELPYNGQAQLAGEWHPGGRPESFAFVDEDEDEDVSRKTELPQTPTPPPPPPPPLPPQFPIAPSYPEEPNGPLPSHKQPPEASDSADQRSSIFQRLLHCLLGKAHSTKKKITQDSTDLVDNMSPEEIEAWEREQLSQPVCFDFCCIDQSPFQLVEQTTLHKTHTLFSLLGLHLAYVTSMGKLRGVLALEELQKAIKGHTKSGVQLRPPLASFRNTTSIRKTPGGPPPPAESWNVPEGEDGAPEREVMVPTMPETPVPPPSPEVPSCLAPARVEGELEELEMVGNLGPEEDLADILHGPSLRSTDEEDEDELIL
- Measurement description: Electrophysiological measurement of compound inhibition of CIC-1 (Gm) in rat soleus muscle fibres: EC50 (Table 7)
Each entry below lists one item and its recorded pEC50 value.
The quantity pEC50 is defined as the negative base-10 logarithm of the molar concentration.

Q: Return reported pEC50; argument: CCOC[C@H](Oc1ccc(Br)cc1-c1ccon1)C(=O)O
Result: 5.09

----------
- System: rat soleus muscles
- Measurement description: Recovery of force in isolated rat soleus nerve-muscle preparations after 115 nM tubocurarine, 50 μM compound (Table 8)
- Study conditions: 40 mins exposure
Property label: Point increase (%) of initial force that was restored
Unit % implied. Number only.

INSERT INTO results (substance_smiles, value) VALUES
  ('C[C@H](Oc1ccc(Br)cc1-c1csnn1)C(=O)O', 20),
  ('C[C@H](Oc1ccc(Cl)cc1-c1ccno1)C(=O)O', 20),
  ('C[C@H](Oc1cc(F)c(Br)cc1-c1ccon1)C(=O)O', 27);

Q: rat soleus muscles / Point increase (%) of initial force that was restored / O=C(O)[C@H](CF)Oc1ccc(Br)cc1-c1csnn1 : value?
Result: 13

Q: Would you mind doing O=C(O)[C@H](CC1CC1)Oc1ccc(Cl)cc1-c1ccno1 as well?
Result: 11

Q: Lookup CC[C@H](Oc1ccc(Br)cc1-c1ccon1)C(=O)O
Result: 27

Q: Request: CC[C@H](Oc1ccc(Cl)cc1-c1ccno1)C(=O)O
Result: 16

Q: # iterate: O=C(O)[C@H](CF)Oc1cc(F)c(Cl)cc1-c1ccon1
Result: 19

Q: Can you check O=C(O)COc1ccc(Br)cc1-c1ccno1 next?
Result: 15

Q: Repeat with C[C@H](Oc1ccc(Cl)cc1-c1cocn1)C(=O)O
Result: 11

Q: Same question, C[C@H](Oc1ccc(Br)cc1-c1cocn1)C(=O)O this time
Result: 14

----------
- System under test: human CIC-1 channels (Homo sapiens)
- Construct: host or cells: CHO (Chinese hamster ovary) cells constitutively expressing human ClC-1
- Measurement description: Automated patch-clamp on human CIC-1 expressed in CHO cells: shift of half activation voltage ΔV1/2
- Type: cell-based
- Study conditions: compound in intracellular solution vs control cell patches; CHO cells expressing human CIC-1
Property label: Δ1/2 (mV)
The reply should be a number in mV, with the unit left off.

Field: example entries. Status: answers known.
INSERT INTO assay_data (compound, property_label, value) VALUES
  ('C[C@H](Oc1ccc(Br)cc1-c1ccno1)C(=O)O [Compound A-22]', 'Δ1/2 (mV)', 9.3),
  ('C[C@H](Oc1ccc(Cl)cc1-c1ccsn1)C(=O)O [Compound A-83]', 'Δ1/2 (mV)', 10.3),
  ('C[C@H](Oc1ccc(Br)cc1-c1ccon1)C(=O)O [Compound A-16]', 'Δ1/2 (mV)', 14.1);

Q: Δ1/2 (mV) for C[C@H](Oc1ccc(Cl)cc1-c1ccon1)C(=O)O [Compound A-34] ?
Result: 8.1

----------
- System under test: CIC-1 channels (Rattus norvegicus, UniProt P35524)
- Measurement description: Electrophysiological measurement of compound inhibition of CIC-1 (Gm) in rat soleus muscle fibres: EC50 (Table 7)
Each entry below lists one item and its recorded pEC50 value.
By convention, pEC50 is the negative base-10 log of a molar concentration.

# annotated cases, reported pEC50 shown
INSERT INTO results (substance_smiles, value) VALUES
  ('O=C(O)COc1ccc(Br)cc1-c1ccno1', 5.11),
  ('C[C@H](Oc1cc(F)c(Br)cc1-c1ccon1)C(=O)O', 5.54),
  ('CC[C@H](Oc1ccc(Cl)cc1-c1ccon1)C(=O)O', 4.98),
  ('O=C(O)[C@H](CC1CCC1)Oc1ccc(Br)cc1-c1ccon1', 5.19);

Q: Give its pEC50 value. Item: O=C(O)COc1ccc(Br)cc1-c1ccon1
Result: 5.13

Q: Okay, and CC[C@H](Oc1ccc(Br)cc1-c1ccon1)C(=O)O ?
Result: 5.37

----------
- Test system: rat soleus muscles
- Measurement description: Recovery of force in isolated rat soleus nerve-muscle preparations after 115 nM tubocurarine, 50 μM compound (Table 8)
- Study conditions: 40 mins exposure
- Protocol: Force traces from a representative muscle stimulated to contract in 1) control condition before addition of neuromuscular blocking agent, 2) the force response to stimulation after 90 minutes incubation with Tubocurarine. […] The traces presented in FIG. 12A (1, 2, 3), correspond to the dotted lines in FIG. 12B, respectively. Recovery of force is quantified as the percentage of the force prior to tubocurarine that is recovered by the compound. […]
Reported Point increase (%) of initial force that was restored by item:
# output: bare number, implied unit %

// below: answered compounds
INSERT INTO measurements (compound, system_under_test, value) VALUES
  ('O=C(O)[C@H](CF)Oc1ccc(Br)cc1-c1ccno1 [Compound A-21]', 'rat soleus muscles', 13),
  ('O=C(O)[C@H](CC1CC1)Oc1ccc(Br)cc1-c1csnn1 [Compound A-75]', 'rat soleus muscles', 10);

Now consider the entry below.
Q: GET /values?readout=Point increase (%) of initial force that was restored&item= C[C@H](Oc1ccc(Cl)cc1-c1ccon1)C(=O)O [Compound A-34]
Result: 43
